Data provenance is patent US11311483B2.

Assay Info: human study: plasma curcumin after a single oral dose of 500 mg curcumin
Assay type: in vivo
Protocol Conditions: 24 hours after single oral dose of 500 mg, 24 healthy persons, read-out: curcumin concentration in blood plasma

{"Smiles Text": "COc1cc(/C=C/C(=O)CC(=O)/C=C/c2ccc(O)c(OC)c2)ccc1O", "concentration at 24 h [nM]": 2.4}

###

Assay Info: human study: plasma curcumin after a single oral dose of 500 mg curcumin
Format: in vivo
Protocol Conditions: one hour after single oral dose of 500 mg, 24 healthy persons, read-out: curcumin concentration in blood plasma
Recorded Endpoint: concentration at 1 h

{"Smiles Text": "COc1cc(/C=C/C(=O)CC(=O)/C=C/c2ccc(O)c(OC)c2)ccc1O", "Recorded Endpoint": "concentration at 1 h", "Result": "< 1 nM"}
